Provide the recorded pIC50 for the entries that follow.
- System: MAXFTN BT-549
- method_notes: 2D cell proliferation assay (CellTiter-Blue)
- Assay type: cell-based
- test_parameters: Homo sapiens, 72 h, three days of treatment, read-out: abs. IC50
Please report pIC50 as the negative decimal logarithm of the molar concentration, giving only the number.

Given the compound CN(C)CCOc1ccc(Nc2ncc3c(n2)N(C2CCCC2)C(=O)[C@]2(CCNC2=O)C3)cc1 and test system MAXFTN BT-549, the measured pIC50 is 6.60

Given the compound O=C1NCC[C@@]12Cc1cnc(Nc3ccc(N4CCNCC4)cc3F)nc1N(C1CCCC1)C2=O and test system MAXFTN BT-549, the measured pIC50 is 5.64

Given the compound CC(C)N1CCN(c2ccc(Nc3ncc4c(n3)N(C3CCCC3)C(=O)[C@]3(CCNC3=O)C4)nc2)CC1 and test system MAXFTN BT-549, the measured pIC50 is 4.71

Given the compound CN(C)[C@H]1CCN(c2ccc(Nc3ncc4c(n3)N(C3CCCC3)C(=O)[C@]3(CCNC3=O)C4)nc2)C1 and test system MAXFTN BT-549, the measured pIC50 is 4.78

* * *

Provide the recorded IC50 for the entries that follow.
- System: LIXFH Hep G2
- method_notes: 2D cell proliferation assay (CellTiter-Blue)
- Type: cell-based
- test_parameters: Homo sapiens, HepG2, 72 h, three days of treatment, read-out: abs. IC50
Field format: number, assumed µM, no unit text.

IC50 recorded for this compound, CN(C)[C@H]1CCN(c2ccc(Nc3ncc4c(n3)N(C3CCCC3)C(=O)[C@]3(CCNC3=O)C4)nc2)C1 [Example D178] , is 5.31

IC50 recorded for this compound, O=C1NCC[C@@]12Cc1cnc(Nc3ccc(N4CCNCC4)cc3F)nc1N(C1CCCC1)C2=O [Example D146] , is 0.341

IC50 recorded for this compound, CN(C)CCOc1ccc(Nc2ncc3c(n2)N(C2CCCC2)C(=O)[C@]2(CCNC2=O)C3)cc1 [Example D179] , is 0.037

IC50 recorded for this compound, CC(C)N1CCN(c2ccc(Nc3ncc4c(n3)N(C3CCCC3)C(=O)[C@]3(CCNC3=O)C4)nc2)CC1 [Example D154] , is 8.14

* * *

- target_entity: CDK9-CYCLINT1 (Homo sapiens, UniProt P50750)
- Construct: purchased Carna
- Sequence (P50750 whole entry): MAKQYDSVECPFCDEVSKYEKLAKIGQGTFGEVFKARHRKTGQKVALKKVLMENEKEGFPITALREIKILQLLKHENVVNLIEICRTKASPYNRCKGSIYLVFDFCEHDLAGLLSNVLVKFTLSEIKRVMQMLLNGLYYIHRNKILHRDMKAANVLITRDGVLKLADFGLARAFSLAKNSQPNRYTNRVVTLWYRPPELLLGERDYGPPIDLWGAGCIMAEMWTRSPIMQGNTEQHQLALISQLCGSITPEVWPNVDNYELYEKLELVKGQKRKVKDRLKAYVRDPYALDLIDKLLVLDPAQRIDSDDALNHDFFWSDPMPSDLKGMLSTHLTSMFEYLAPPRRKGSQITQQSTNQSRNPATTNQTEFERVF
- Sequence (O60563 whole entry partner): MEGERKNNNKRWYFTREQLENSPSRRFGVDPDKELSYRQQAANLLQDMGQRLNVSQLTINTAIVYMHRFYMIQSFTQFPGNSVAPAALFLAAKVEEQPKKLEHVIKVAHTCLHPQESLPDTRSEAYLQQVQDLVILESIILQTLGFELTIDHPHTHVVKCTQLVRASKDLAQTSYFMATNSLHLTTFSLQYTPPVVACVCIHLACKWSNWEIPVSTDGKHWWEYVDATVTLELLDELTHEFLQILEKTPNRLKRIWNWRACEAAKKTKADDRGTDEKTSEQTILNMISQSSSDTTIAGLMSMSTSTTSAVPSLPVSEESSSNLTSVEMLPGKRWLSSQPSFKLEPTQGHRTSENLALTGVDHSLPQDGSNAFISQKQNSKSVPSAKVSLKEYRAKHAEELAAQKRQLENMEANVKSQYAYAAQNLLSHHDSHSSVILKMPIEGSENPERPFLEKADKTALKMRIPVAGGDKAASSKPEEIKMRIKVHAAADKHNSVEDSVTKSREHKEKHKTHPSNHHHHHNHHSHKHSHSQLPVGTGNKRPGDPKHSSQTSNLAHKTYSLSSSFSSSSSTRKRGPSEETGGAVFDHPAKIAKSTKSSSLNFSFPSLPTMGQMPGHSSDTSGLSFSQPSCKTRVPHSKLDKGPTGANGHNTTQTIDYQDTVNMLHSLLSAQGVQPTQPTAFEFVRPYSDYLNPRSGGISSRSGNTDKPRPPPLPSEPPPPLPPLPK
- method_notes: CDK inhibition assay (microfluidic LabChip, IC50 format)
- Assay type: biochemical
- test_parameters: Table 4b, lower part; read-out: CDK9 CyclinT1 IC50
Provide the recorded IC50 for the entries that follow.

IC50 recorded for this compound, CC1CN(c2ccc(Nc3ncc4c(n3)N(C3CCCC3)C(=O)[C@]3(CCNC3=O)C4)cc2)CC(C)N1 (stereo partly shown) , is 0.00374 µM

IC50 recorded for this compound, CS(=O)(=O)c1ccc(Nc2ncc3c(n2)N(C2CCCC2)C(=O)[C@]2(CCNC2=O)C3)cc1 , is < 0.0032 µM

IC50 recorded for this compound, O=C1NCC[C@@]12Cc1cnc(Nc3ccc(N4CCNCC4)c(F)c3)nc1N(C13CC(C1)C3)C2=O , is 0.0468 µM

IC50 recorded for this compound, CN1CC2(C1)CN(c1ccc(Nc3ncc4c(n3)N(C3CCCC3)C(=O)[C@]3(CCNC3=O)C4)cc1F)C2 , is < 0.0032 µM

IC50 recorded for this compound, O=C1NCC[C@@]12Cc1cnc(Nc3ccc(N4CCN(C5CC5)CC4)cc3)nc1N(C1CCCC1)C2=O , is > 10 µM

IC50 recorded for this compound, O=C1NCC[C@@]12Cc1cnc(Nc3ccc(N4CCN(CCO)CC4)c(F)c3)nc1N(C1CCCC1)C2=O , is < 0.0032 µM

IC50 recorded for this compound, CC(C)N1CCN(c2ccc(Nc3ncc4c(n3)N(C35CC(C3)C5)C(=O)[C@]3(CCNC3=O)C4)nc2)CC1 , is 17.7 µM
